# Test system: CAKI-1
# measurementNotes: NCI tumour cell line growth inhibition, 48 h
Activity calls are given as the source filed them. Rule as the data show it: active = GI50 up to about 1.1 µM and inactive = higher.
readoutType: GI50

Solved entries (count: 3):
{"compound": "N#CCCN(CCCCN(CCC#N)C(=O)Nc1ccccc1)C(=O)Nc1ccccc1", "GI50": "> 100 µM (inactive)"}
{"compound": "Clc1ccc(OC2CCO2)cc1Cl (centres undefined)", "GI50": "53.1 µM (inactive)"}
{"compound": "Clc1ccc(CCn2ccc3ccccc32)c(Cl)c1", "GI50": "> 100 µM (inactive)"}

Now look at this entry.
Recorded GI50 for CN(CC(=O)O)c1ncc2c(n1)-c1ccccc1OC2c1ccccc1 (centres undefined) on CAKI-1 was > 100 µM (inactive)

====

# Tested on: LXFL 529
# measurementNotes: NCI tumour cell line growth inhibition, 48 h
Activity calls are given as the source filed them. Cut-off read from the data, not from the text of the source: active = GI50 up to about 1.1 µM and inactive = higher.
readoutType: GI50

{"moleculeSmiles": "CCOC(=O)/C(C#N)=C1/Sc2c(ncn(/N=C/c3ccc(OC)cc3)c2=O)N1c1ccccc1", "GI50": "41.1 µM (inactive)"}
{"moleculeSmiles": "Cc1ccc(/C=C(\\NC(=O)c2ccccc2)c2nc3ccccc3[nH]2)cc1", "GI50": "32.2 µM (inactive)"}
{"moleculeSmiles": "O=c1oc(-c2ccccc2)cn1-c1ccccc1", "GI50": "> 100 µM (inactive)"}
{"moleculeSmiles": "COC(=O)c1cc2c3c(ccc2[nH]1)N(C(=O)c1cc2c4c(ccc2[nH]1)N(C(=O)c1cc2c5c(ccc2[nH]1)N(C(N)=O)CC5)CC4)CC3", "GI50": "2.07 µM (inactive)"}

Measured GI50, `CCOC(=O)C(=O)Nc1ccc([N+](=O)[O-])cc1C#N` : > 100 µM (inactive)

====

# System: T47D
# measurementNotes: NCI tumour cell line growth inhibition, 48 h
Calls of active or inactive are those of the source. Rule as the data show it: active = GI50 up to about 1.1 µM and inactive = higher.
readoutType: GI50

Before answering, review these 3 worked examples.
{"compound": "Cc1nn(C(=O)Cc2ccccc2)c2c1C(c1ccc(O)cc1O)SC(=N)N2 (centres undefined)", "GI50": "> 100 µM (inactive)"}
{"compound": "COC(=O)C1c2cc3c(c(O)c2C(O)CC1(C)O)C(=O)c1c(O)cc2c(c1C3=O)OC1OC2(C)C(O)C(N(C)C)C1O (centres undefined)", "GI50": "1.71 µM (inactive)"}
{"compound": "O=[N+]([O-])c1ccc(C2=NOC(c3ccccc3F)N2C23CC4CC(CC(C4)C2)C3)cc1 (centres undefined)", "GI50": "> 100 µM (inactive)"}

Attention now shifts to the item below.
Data point: `CCCNC(=S)N/N=C/c1cccc(C)n1` ; GI50 = 3.43 µM (inactive)

====

Listing: GI50 of selected compounds
# System: MDA-N
# measurementNotes: NCI tumour cell line growth inhibition, 48 h
Activity calls are given as the source filed them. Cut-off read from the data, not from the text of the source: active = GI50 up to about 1.1 µM and inactive = higher.

Reference set, count: 2
{"compound": "CC1CC2(OC2C)C(=O)OC2CCN(C)C/C=C(/COC(=O)C1(C)O)C2=O (stereo not drawn)", "endpointValue": "> 100 µM (inactive)"}
{"compound": "CC/N=C(\\N)CSS(=O)(=O)O", "endpointValue": "> 100 µM (inactive)"}

Note to self: GI50 recorded for `CS(=O)(=O)Nc1ccc2ccccc2c1-c1c(NS(C)(=O)=O)ccc2ccccc12` was > 25 µM (inactive)
